Assignment: determine reported IC50 for the given compounds.
Target: Epithelial discoidin domain-containing receptor 1 (Homo sapiens, UniProt Q08345)
Sequence (Q08345 whole entry, the tested form may be a part): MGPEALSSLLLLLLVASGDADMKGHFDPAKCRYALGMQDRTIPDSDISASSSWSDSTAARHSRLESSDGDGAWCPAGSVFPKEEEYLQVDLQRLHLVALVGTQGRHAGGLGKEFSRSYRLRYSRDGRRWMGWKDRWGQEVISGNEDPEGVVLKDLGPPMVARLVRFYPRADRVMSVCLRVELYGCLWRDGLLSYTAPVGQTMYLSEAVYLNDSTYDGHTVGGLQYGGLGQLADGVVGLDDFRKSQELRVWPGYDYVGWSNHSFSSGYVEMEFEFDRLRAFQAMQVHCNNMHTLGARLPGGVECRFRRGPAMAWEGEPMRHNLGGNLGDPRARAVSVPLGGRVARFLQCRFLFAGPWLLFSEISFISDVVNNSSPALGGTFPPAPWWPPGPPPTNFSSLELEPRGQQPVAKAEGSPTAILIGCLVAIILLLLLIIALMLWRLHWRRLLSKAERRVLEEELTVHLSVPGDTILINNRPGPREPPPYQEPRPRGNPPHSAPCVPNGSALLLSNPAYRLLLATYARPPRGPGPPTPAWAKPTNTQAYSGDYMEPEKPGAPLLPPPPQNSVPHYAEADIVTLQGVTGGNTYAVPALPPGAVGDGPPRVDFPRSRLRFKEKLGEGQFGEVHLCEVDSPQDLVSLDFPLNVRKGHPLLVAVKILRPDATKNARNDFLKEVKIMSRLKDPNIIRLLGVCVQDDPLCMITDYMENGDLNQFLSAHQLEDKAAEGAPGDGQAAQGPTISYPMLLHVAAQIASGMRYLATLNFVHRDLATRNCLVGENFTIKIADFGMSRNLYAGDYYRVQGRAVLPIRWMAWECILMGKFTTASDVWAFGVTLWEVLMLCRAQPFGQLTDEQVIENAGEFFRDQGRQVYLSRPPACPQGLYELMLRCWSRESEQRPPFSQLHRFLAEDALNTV
Lab book: enter the figure in nM, no units written.

Which IC50 reading was recorded for the compound C#CCCC1(CCN2CCN(Cc3cc(NC(=O)c4ccc5c(c4)CN(c4cncnc4)CC5C)cc(C(F)(F)F)c3)CC2)N=N1 (configuration not stated) ?
577

Which IC50 reading was recorded for the compound C#CCCC1(CC(=O)N2CCN(Cc3cc(NC(=O)c4ccc5c(c4)CN(c4cncnc4)CC5C)cc(C(F)(F)F)c3)CC2)N=N1 (configuration not stated) ?
259
